assay-protocol: In vitro inhibition of IgG antibody production in human PBMC cultured with alpha-CD40, IL-4 and IL-10 at 3 uM concentration
Format: functional
The compounds listed here are annotated with their Suppression.

O=C(Cc1ccc(Oc2ccc3ccccc3c2)cc1)Nc1ccccc1C(=O)O 31.2%
O=C(O)c1ccc(NC(=O)c2ccc(Oc3ccc4ccccc4c3)cc2)cc1 24.4%

stdin: Entry "Nc1ccccc1NC(=O)c1ccc(Oc2ccc3ccccc3c2)cc1" : reported Suppression = ?
stdout: 3.3%

stdin: Given "O=C(Nc1ccccc1C(=O)O)c1ccc(C(=O)c2ccc3ccccc3c2)cc1" , state its recorded Suppression.
stdout: 5.4%

stdin: What value of measured Suppression is listed for "O=C(Nc1ccccc1C(=O)O)c1ccc(Oc2cccc3ccccc23)cc1" ?
stdout: 64.7%

stdin: Given the entry "O=C(Nc1ccccc1C(=O)O)c1ccc(Oc2ccc3ccccc3c2)c([N+](=O)[O-])c1" , report its measured Suppression.
stdout: 36.9%

stdin: Entry "NC(=O)c1ccccc1NC(=O)c1ccc(Oc2ccc3ccccc3c2)cc1" has what Suppression?
stdout: 10.8%

----------
assay-protocol: In vitro inhibition of IgE antibody production in human PBMC cultured with alpha-CD40, IL-4 and IL-10 at 3 uM concentration
Assay type: functional
# note: exactly 60% is not below, so it is Criterion not met; use Criterion met for Suppression strictly under it

Recorded results for 5 compounds are shown here.
compound	category
O=C(CCc1ccc(Oc2ccc3ccccc3c2)cc1)Nc1ccccc1C(=O)O	Criterion met
O=C(O)c1ccccc1NCc1ccc(Oc2ccc3ccccc3c2)cc1	Criterion met
O=C(CCCC1CC1/C=C/c1ccc2ccccc2c1)Nc1ccccc1C(=O)O (stereo unspecified)	Criterion not met
O=C(Nc1ccccc1C(=O)O)c1ccc(Oc2cccc3ccccc23)cc1	Criterion not met
O=C(Cc1ccc(Oc2ccc3ccccc3c2)cc1)Nc1ccccc1C(=O)O	Criterion not met

Moving on to another compound below.
stdin: Find out if reported Suppression for "O=C(Cc1ccc(Oc2ccc3cc(OCc4ccccc4)ccc3c2)cc1)Nc1ccccc1C(=O)O" is less than 60%
stdout: Criterion not met

----------
System: B-cell line
assay-protocol: Compound was tested for inhibition of IgE production on mouse B cells after treating with IL-4, LPS
Type: functional, cell-based
measure: IC50 (nM)
Entry rule: numbers only, all in nM.

stdin: Look up IC50 for this molecule: "O=C(Cc1ccc(Oc2ccc3cc(OCc4ccccc4)ccc3c2)cc1)Nc1ccccc1C(=O)O"
stdout: 12

----------
assay-protocol: Tested for human PBMC cell viability, cultured with alpha-CD40, IL-4 and IL-10 at 3 uM (a negative number means enhancement of cell viability)
Format: functional
measure: Cell viability

molecule	Cell viability
O=C(Nc1ccccc1C(=O)O)c1ccc(Oc2cccc3ccccc23)cc1	-6.5
CC(C(=O)Nc1ccccc1C(=O)O)c1ccc(Oc2ccc3ccccc3c2)cc1 (centres undefined)	-2.1
O=C(O)c1ccc(NC(=O)c2ccc(Oc3ccc4ccccc4c3)cc2)cc1	-16.1
O=C(Nc1ccccc1-c1nn[nH]n1)c1ccc(Oc2ccc3ccccc3c2)cc1	-13.6
O=C(CCc1ccc(Oc2ccc3ccccc3c2)cc1)Nc1ccccc1C(=O)O	-2.9
CN(C(=O)c1ccc(Oc2ccc3ccccc3c2)cc1)c1ccccc1C(=O)O	-5.1
CC(C)(C(=O)Nc1ccccc1C(=O)O)c1ccc(Oc2ccc3ccccc3c2)cc1	-11.3
O=C(Nc1ccccc1C(=O)O)c1ccc(Cc2ccc3ccccc3c2)cc1	-1.1

stdin: Consider the molecule shown here: O=C(CCCC1CC1/C=C/c1ccc2ccccc2c1)Nc1ccccc1C(=O)O (centres undefined) What is its recorded Cell viability?
stdout: -2.6%

stdin: Reported Cell viability, molecule "O=C(Nc1ccccc1C(=O)O)c1cccc(Oc2ccc3ccccc3c2)c1" : ____
stdout: -23.6

stdin: Can you look up the measured Cell viability of "O=C(Nc1ccccc1C(=O)O)c1ccc(Oc2ccccc2)cc1" for me?
stdout: -1.4

stdin: Cell viability lookup needed for "O=C(O)c1cccc(NC(=O)c2ccc(Oc3ccc4ccccc4c3)cc2)c1" , thanks.
stdout: -14.5

stdin: State the recorded Cell viability for this entry: "O=C(Nc1ccccc1C(=O)O)c1ccc(Oc2ccc3ccccc3c2)cc1"
stdout: -7.4

stdin: Look at this molecule and give its reported Cell viability. "O=C(O)c1ccccc1NCc1ccc(Oc2ccc3ccccc3c2)cc1"
stdout: -1.7

The reported measurements were obtained from ChEMBL document CHEMBL1129932.
